Test system: KM12 colon
Assay: NCI tumour cell line growth inhibition, 48 h
measurementKind: GI50

For orientation, consider the following solved cases.
moleculeSmiles | GI50
COc1ccc(-c2cc(-c3cn[nH]c3-c3ccccn3)ccn2)cc1 | > 25000 nM
CO/N=C(/COc1c(-c2ccccc2)oc2ccccc2c1=O)c1ccc(OC)cc1 | 56100 nM
C/C1=C\C/C=C(\C)[C@H]2CC(CC/C(C)=C/CC1)[C@@](C)(CO)O2 | 62700 nM
CC1(C)N=C(N)N=C(N)N1c1cccc(CCCCc2ccccc2)c1 | 212 nM
CCOC(=O)c1ccc(Nc2sc(C(=O)c3cccc([N+](=O)[O-])c3)c(N)c2C#N)cc1 | 67.8 nM

Qu. Using the record for CN1CCN(Cc2ccc(NC(=O)c3nc4ccc5[nH]ncc5c4c4c3CCC4)cc2C(F)(F)F)CC1 , state its measured GI50.
Ans. 957 nM
